Cited source: patent US6943183B2

- test.target: SF9 affinity purified rat FPT (Rattus norvegicus, UniProt Q02293+Q04631)
- test.details: PFT (FPT) inhibitory activity assay, radiolabeled farnesyl pyrophosphate and biotinyl peptide, streptavidin beads
- measurement.setup: HEPES buffer pH 7.4, 30° C., 30 minutes; read-out: FTase IC50
The reader will find reported IC50 values listed item by item below.
Express your answer in nM, writing the number without its unit.

Which IC50 value is on record for CCOC(=O)CCNC(=O)c1ccccc1S(=O)(=O)Cc1c(O[C@H](Cn2ccnc2)c2ccccc2)ccc2c1CCCC2=O [Compound 183] ?
7

###

- test.target: SF9 affinity purified rat FPT (Rattus norvegicus, UniProt Q02293+Q04631)
- test.details: PFT (FPT) inhibitory activity assay, radiolabeled farnesyl pyrophosphate and biotinyl peptide, streptavidin beads
- measurement.setup: HEPES buffer pH 7.4, 30° C., 30 minutes; read-out: FTase IC50
Lab note - cut at 5 nM for IC50: 1.0 if strictly below, 0.0 if not.

O=C1CCCc2c1ccc(O[C@H](Cn1ccnc1)c1ccccc1)c2COc1ccc2ccccc2c1 [Compound 85]	0.0
O=C(NC(CO)CO)c1ccccc1SCc1c(O[C@H](Cn2ccnc2)c2ccccc2)ccc2c1CCCC2=O [Compound 232]	1.0
O=C1CCCc2c1ccc(O[C@H](Cn1ccnc1)c1ccccc1)c2CNc1ccc2[nH]ncc2c1 [Compound 145]	0.0
COC(=O)c1ccccc1OCc1c(O[C@H](Cn2ccnc2)c2ccccc2)ccc2c1CCCC2=O [Compound 81]	1.0

Does this compound meet the criterion IC50 < 5 nM? C=CCNC(=O)c1cccc(SCc2c(O[C@H](Cn3ccnc3)c3ccccc3)ccc3c2CCCC3=O)c1 [Compound 210]
1.0

Entry O=C1CCCc2c1ccc(O[C@H](Cn1ccnc1)c1ccccc1)c2CCCc1ccccc1 [Compound 44b] please
1.0

Repeat for the following compound: CC(C)(C)OC(=O)NCc1c(O[C@H](Cn2ccnc2)c2ccccc2)ccc2c1CCCC2=O [Compound 41]
0.0

Now give it for O=C1CCCc2c1ccc(O[C@H](Cn1ccnc1)c1ccccc1)c2CCc1ccncc1 [Compound 26] too.
1.0

How about this compound: O=C(NC1CC1)c1ccc(S(=O)(=O)Cc2c(O[C@H](Cn3ccnc3)c3ccccc3)ccc3c2CCCC3=O)cc1 [Compound 223]
1.0

What do we get for O=C1CCCc2c1ccc(O[C@H](Cn1ccnc1)c1ccccc1)c2-c1ccc2ccccc2c1 [Compound 23] ?
0.0

And what about the compound O=C(NCc1ccco1)c1ccc(S(=O)(=O)Cc2c(O[C@H](Cn3ccnc3)c3ccccc3)ccc3c2CCCC3=O)cc1 [Compound 229] ?
1.0

Proceed to O=C1CCCc2c1ccc(O[C@H](Cn1ccnc1)c1ccccc1)c2COc1cccc2cccnc12 [Compound 94]
1.0

Consider next the compound O=C(Cc1ccccn1)Nc1c(O[C@H](Cn2ccnc2)c2ccccc2)ccc2c1CCCC2=O [Compound 39a] in the same way.
0.0

###

- test.target: SF9 affinity purified rat FPT (Rattus norvegicus, UniProt Q02293+Q04631)
- test.details: PFT (FPT) inhibitory activity assay, radiolabeled farnesyl pyrophosphate and biotinyl peptide, streptavidin beads
- measurement.setup: HEPES buffer pH 7.4, 30° C., 30 minutes; read-out: FTase IC50
Item-by-item account of pIC50
For clarity, pIC50 is expressed as the negative log10 of concentration in mol/L.

Completed entries (count: 2):
O=C1CCCc2c1ccc(O[C@H](Cn1ccnc1)c1ccccc1)c2CCc1cccnc1 [Compound 26b]	9.07
CC[C@H](C)CNC(=O)c1cccc(SCc2c(O[C@H](Cn3ccnc3)c3ccccc3)ccc3c2CCCC3=O)c1	9.70

Query for SF9 affinity purified rat FPT (Rattus norvegicus, UniProt Q02293+Q04631): what pIC50 does the record show for CCCc1c(O[C@H](Cn2ccnc2)c2ccccc2)ccc2c1CCCC2=O ?
8.30

###

- test.target: SF9 affinity purified rat FPT (Rattus norvegicus, UniProt Q02293+Q04631)
- test.details: PFT (FPT) inhibitory activity assay, radiolabeled farnesyl pyrophosphate and biotinyl peptide, streptavidin beads
- measurement.setup: HEPES buffer pH 7.4, 30° C., 30 minutes; read-out: FTase IC50
- Experimental: The PFT or FPT inhibitory activity of compounds of the present invention were assayed in HEPES buffer (pH 7.4) containing 5 mM potassium phosphate and 20 μM ZnCl2. The solution also contained 5 mM DTT (dithiothreitol), 5 mM MgCl2, and 0.1% PEG 8000. Assays were performed in 96 well plates (Wallec) and employed solutions composed of varying concentrations of a compound of the present invention in 10% DMSO (dimethylsulfoxide). […]
Listing of recorded IC50 by entry.

Consider the worked cases shown below.
Cc1cc(C)c(OCc2c(O[C@H](Cn3ccnc3)c3ccccc3)ccc3c2CCCC3=O)c(C)c1	7 nM
O=C1CCCc2c1ccc(O[C@H](Cn1ccnc1)c1ccccc1)c2CSc1ccccn1	4 nM
C#CCNC(=O)c1ccc(S(=O)(=O)Cc2c(O[C@H](Cn3ccnc3)c3ccccc3)ccc3c2CCCC3=O)cc1	0.37 nM

Endpoint output: IC50 of O=C1CCCc2c1ccc(O[C@H](Cn1ccnc1)c1ccccc1)c2COc1ccc(Oc2ccccc2)cc1 . Value?
6 nM

###

- test.target: SF9 affinity purified rat FPT (Rattus norvegicus, UniProt Q02293+Q04631)
- test.details: PFT (FPT) inhibitory activity assay, radiolabeled farnesyl pyrophosphate and biotinyl peptide, streptavidin beads
- measurement.setup: HEPES buffer pH 7.4, 30° C., 30 minutes; read-out: FTase IC50
Counter-ions that a name gives are not always drawn.
property: IC50 (pM)
All answers are understood in pM, so give the number only.

Consider the following illustrative entries.
O=C(O)c1ccc(SCc2c(O[C@H](Cn3ccnc3)c3ccccc3)ccc3c2CCCC3=O)cc1	8000
O=C(NC(CO)CO)c1ccc(SCc2c(O[C@H](Cn3ccnc3)c3ccccc3)ccc3c2CCCC3=O)cc1	450

Here's the next entry for you.
Recorded IC50 for CC(C)OCc1c(O[C@H](Cn2ccnc2)c2ccccc2)ccc2c1CCCC2=O [Compound 15, hydrochloride] with SF9 affinity purified rat FPT (Rattus norvegicus, UniProt Q02293+Q04631), please?
200

###

- test.target: SF9 affinity purified rat FPT (Rattus norvegicus, UniProt Q02293+Q04631)
- test.details: PFT (FPT) inhibitory activity assay, radiolabeled farnesyl pyrophosphate and biotinyl peptide, streptavidin beads
- measurement.setup: HEPES buffer pH 7.4, 30° C., 30 minutes; read-out: FTase IC50
- Experimental: The PFT or FPT inhibitory activity of compounds of the present invention were assayed in HEPES buffer (pH 7.4) containing 5 mM potassium phosphate and 20 μM ZnCl2. The solution also contained 5 mM DTT (dithiothreitol), 5 mM MgCl2, and 0.1% PEG 8000. Assays were performed in 96 well plates (Wallec) and employed solutions composed of varying concentrations of a compound of the present invention in 10% DMSO (dimethylsulfoxide). […]
property: IC50 (nM)
Return type: number; implicit unit nM.

Worked examples follow.
CC(C)(Cn1ccnc1)Oc1ccc2c(c1CCc1ccccc1)CCCC2=O [Compound 58a]	1.6
CNC(=O)c1ccc(CCc2c(O[C@H](Cn3ccnc3)c3ccccc3)ccc3c2CCCC3=O)cc1	0.1
CC(O)CNC(=O)c1cccc(S(=O)(=O)Cc2c(O[C@H](Cn3ccnc3)c3ccccc3)ccc3c2CCCC3=O)c1 (stereo partly shown)	1

Now consider a different compound.
So what's the measured IC50 for this one? COc1ccc([S+]([O-])Cc2c(O[C@H](Cn3ccnc3)c3ccccc3)ccc3c2CCCC3=O)cc1 (stereo partly shown)
0.35

###

- test.target: SF9 affinity purified rat FPT (Rattus norvegicus, UniProt Q02293+Q04631)
- test.details: PFT (FPT) inhibitory activity assay, radiolabeled farnesyl pyrophosphate and biotinyl peptide, streptavidin beads
- measurement.setup: HEPES buffer pH 7.4, 30° C., 30 minutes; read-out: FTase IC50
pIC50: −log10 of the molar value.
Assign 1 whenever pIC50 does not fall below 9; assign -1 whenever it does.

A selection of reference data follows.
O=C(NC(CO)CO)c1cccc(SCc2c(O[C@H](Cn3ccnc3)c3ccccc3)ccc3c2CCCC3=O)c1	1
O=C1CCCc2c1ccc(O[C@H](Cn1ccnc1)c1ccccc1)c2COc1ccc(OC(F)(F)F)cc1	-1
O=C1CCCc2c1ccc(O[C@H](Cn1ccnc1)c1ccccc1)c2COc1ccc(F)cc1	-1
COC(=O)c1ccc(CCc2c(O[C@H](Cn3ccnc3)c3ccccc3)ccc3c2CCCC3=O)cc1 [Compound 28]	-1
O=C(NC1CCCC1)c1cccc(SCc2c(O[C@H](Cn3ccnc3)c3ccccc3)ccc3c2CCCC3=O)c1	1
O=C(O)c1ccccc1SCc1c(O[C@H](Cn2ccnc2)c2ccccc2)ccc2c1CCCC2=O	-1

Now, please, on to the next compound.
Given CN(C)CCNC(=O)c1ccccc1SCc1c(O[C@H](Cn2ccnc2)c2ccccc2)ccc2c1CCCC2=O , state whether its pIC50 is at least 9.
-1

###

- test.target: SF9 affinity purified rat FPT (Rattus norvegicus, UniProt Q02293+Q04631)
- test.details: PFT (FPT) inhibitory activity assay, radiolabeled farnesyl pyrophosphate and biotinyl peptide, streptavidin beads
- measurement.setup: HEPES buffer pH 7.4, 30° C., 30 minutes; read-out: FTase IC50
Please note: IC50 exactly at 7 nM is NOT MET. Only values below 7 nM get MET.

Use the examples below as a reference point.
CC(C)S(=O)(=O)Cc1c(O[C@H](Cn2ccnc2)c2cccnc2)ccc2c1CCCC2=O [Compound 63b]	MET
O=C(Nc1c(O[C@H](Cn2ccnc2)c2ccccc2)ccc2c1CCCC2=O)c1cccnc1Oc1ccccc1 [Compound 40f]	NOT MET
O=C1CCCc2c1ccc(O[C@H](Cn1ccnc1)c1ccccc1)c2CSc1ccncc1	MET

Consider O=C1CCCc2c1ccc(O[C@H](Cn1ccnc1)c1ccccc1)c2NC(=O)c1ncoc1-c1ccc(Cl)cc1 [Compound 40d] . Does its IC50 lie strictly below 7 nM?
NOT MET

Try N#Cc1ccc(Cc2c(O[C@H](Cn3ccnc3)c3ccccc3)ccc3c2CCCC3=O)cc1 next.
MET

Continue with C=CCNC(=O)c1ccc(SCc2c(O[C@H](Cn3ccnc3)c3ccccc3)ccc3c2CCCC3=O)cc1
MET

Then O=C1CCCc2c1ccc(O[C@H](Cn1ccnc1)c1ccccc1)c2COc1ccccc1 ?
NOT MET
